target-or-test-system: T1, SulfoCCK biotin peptide (human)
T1 construct: also called sulfotyrosine CCK peptide
T1 peptide: SHRISDRD[sY]MGWMDFGGK(Biotin)
experimental-details: ELISA, 50 nM mAb
Method: Recombinant PSGL-1-hFc1 chimera protein consisting of PSGL-1's extracellular domain (ECD) served as a positive control. […] Primary antibody was added (25 ul per well) in duplicate at 50 nM in assay buffer (blocking buffer containing 0.05% Tween®20) into test and control (just blocked) wells and the plate incubated for 45 min at 37° C.
Non-standard residues stand in square brackets, D forms with d. No end group written: not given here. *: point of attachment. Biotin = O=C1N[C@H]2[C@H](CS[C@H]2CCCCC(=O)*)N1; sY = N[C@@H](Cc1ccc(OS(=O)(=O)O)cc1)C(=O)O
I'd be grateful if you could share measured binding normalized to PSGL-1 for these entries.

Item 03B04 (antibody, IgG4, V domains shown) VH: EVKLLESGGGLVKPGGSLRLSCAASGFAFSRYTMNWVRQAPGKGLEWVSSISSSSSYIYYADSVKGRFTISRDNAKNSLVLQMNSLRPEDTAVYYCARGGIAANDYWGQGTLVTVSS VL: EIVMTQTPLSLPVTLGQPASISCRSSRNLVHYDGNTYLSWFHQRPGQPPRRLIYKISNRESGVPDRFSGSGSGTDFTLKISRVEAEDVGVYYCLQHTHWPWTFGPGTKVEIK has what recorded binding normalized to PSGL-1? 0.13

Item 06C04 (antibody, IgG4, V domains shown) VH: EVQLVESGGGLVQPGGSLRLSCAASGFTFSDHYMDWVRQAPGKGLEWVGRSRNKVKSYTTAYAASVEGRITISRDDSKNSLYLEMNSLKTEDTAVYYCVRVRWGGAFDIWGQGTMVTVSS VL: QPVLTQPPSASGSPGQSVTISCTGTSSDVGGYNYVSWYQQHPGKAPKLMIYEVSKRPSGVPDRFSGSKSGNTASLTVSGLQAEDEADYYCSSYAGSNNLRVFGGGTKLTVL has what recorded binding normalized to PSGL-1? 0.06

Item 08C07 (antibody, IgG4, V domains shown) VH: QMQLVQSGAEVKKPGSSVKVSCKASGGTFSNYGMIWVRQAPRQGLEWMGRIIPFLDKPDYSEKFQDRITFTADKSTSTVYMELRGLRSDDTAVYYCAKWTSTLQGITTGQTWGQGTLVTVSS VL: QPVLTQPPSASGTPGQRVTISCSGSSSNIGGSYMYWYQQFPGTAPKLLIYRNNQRPSGVPDRFSGSKSGTSASLAISGLRSEDEADYYCAAWDVSLSGWVFGGGTKLTVL has what recorded binding normalized to PSGL-1? 0.66
